Biological target: TruD (uncultured Prochloron sp. 06037A, UniProt B2KYG8)
Construct: codon-optimized full-length, N-terminal His6-tag removed by TEV protease, expressed in E. coli BL21 (DE3); homodimer with structural Zn
Sequence (B2KYG8 2-781): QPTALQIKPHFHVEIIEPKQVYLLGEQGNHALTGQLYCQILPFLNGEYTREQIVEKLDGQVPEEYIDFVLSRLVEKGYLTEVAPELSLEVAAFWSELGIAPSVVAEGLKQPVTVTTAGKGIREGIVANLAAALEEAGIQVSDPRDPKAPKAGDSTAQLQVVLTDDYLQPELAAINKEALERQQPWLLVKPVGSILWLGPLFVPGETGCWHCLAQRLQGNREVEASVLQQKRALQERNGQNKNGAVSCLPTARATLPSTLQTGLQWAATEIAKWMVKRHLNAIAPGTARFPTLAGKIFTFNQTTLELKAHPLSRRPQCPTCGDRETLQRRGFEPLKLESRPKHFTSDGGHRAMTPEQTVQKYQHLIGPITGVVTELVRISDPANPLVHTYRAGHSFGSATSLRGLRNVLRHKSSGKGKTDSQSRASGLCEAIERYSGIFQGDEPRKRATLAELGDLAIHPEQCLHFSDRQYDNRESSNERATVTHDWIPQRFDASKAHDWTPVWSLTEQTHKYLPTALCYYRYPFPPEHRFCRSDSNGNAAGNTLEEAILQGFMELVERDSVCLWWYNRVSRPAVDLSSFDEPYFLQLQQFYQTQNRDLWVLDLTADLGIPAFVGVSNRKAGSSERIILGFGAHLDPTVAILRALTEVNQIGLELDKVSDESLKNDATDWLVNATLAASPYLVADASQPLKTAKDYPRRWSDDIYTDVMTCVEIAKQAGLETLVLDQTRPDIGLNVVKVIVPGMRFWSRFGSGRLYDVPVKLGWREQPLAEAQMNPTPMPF
Test: Isothermal titration calorimetry (VP-ITC), nucleotide injected into TruD in 150 mM NaCl, 10 mM HEPES pH 7.4, 1 mM TCEP at 20 or 25 °C, fitted to a one-site model.
Type: binding
measurement_kind: Kd (µM)
Field format: number, assumed µM, no unit text.

Request: Would you kindly share the measured Kd for Nc1ncnc2c1ncn2[C@@H]1O[C@H](COP(=O)(O)OP(=O)(O)OP(=O)(O)O)[C@@H](O)[C@H]1O [ATP, adenosine 5'-triphosphate] ?
Result: 19

====

Molecular target: TruD
Experiment: ITC, injection of nucleosides into TruD solutions
Type: binding, Prochloron spp.
Settings: ADP decomposes slowly, only the rapidly emerging endothermic parts of the ITC signals analysed, one-site model, read-out: apparent KD
measurement_kind: Kd (µM)
Field format: number, assumed µM, no unit text.

Request: Would you kindly share the measured Kd for Nc1ncnc2c1ncn2[C@@H]1O[C@H](COP(=O)(O)OP(=O)(O)O)[C@@H](O)[C@H]1O [ADP] ?
Result: 20

====

Biological target: TruD
Assay: ITC, injection of nucleosides into TruD solutions
Format: binding, Prochloron spp.
Conditions: VP-ITC, 150 mM NaCl, 10 mM HEPES pH 7.4, 1 mM TCEP, 20 or 25 °C, one-site model, read-out: KD
Measured Kd, listed per entry.
Field format: number, assumed µM, no unit text.

Nc1ncnc2c1ncn2[C@@H]1O[C@H](COP(=O)(O)OP(=O)(O)OP(=O)(O)O)[C@@H](O)[C@H]1O :: 19

With those in mind, consider the next compound.
Request: Would you kindly share the measured Kd for Nc1ncnc2c1ncn2[C@@H]1O[C@H](COP(=O)(O)O)[C@@H](O)[C@H]1O ?
Result: 12

====

Biological target: TruD (uncultured Prochloron sp. 06037A)
Construct: codon-optimized full-length, N-terminal His6-tag removed by TEV protease, expressed in E. coli BL21 (DE3); homodimer with structural Zn
Test: Isothermal titration calorimetry (VP-ITC), nucleotide injected into TruD in 150 mM NaCl, 10 mM HEPES pH 7.4, 1 mM TCEP at 20 or 25 °C, fitted to a one-site model.
Type: binding
Conditions: read-out: KD
Measured pKd, listed per entry.
// field semantics: pKd = negative decimal log of concentration (mol/L)

Nc1ncnc2c1ncn2[C@@H]1O[C@H](COP(=O)(O)OP(=O)(O)O)[C@@H](O)[C@H]1O [ADP, adenosine 5'-diphosphate] :: 4.70

With those in mind, consider the next molecule.
Request: Would you kindly share the measured pKd for Nc1ncnc2c1ncn2[C@@H]1O[C@H](COP(=O)(O)O)[C@@H](O)[C@H]1O [AMP, adenosine 5'-monophosphate] ?
Result: 4.92
